Test: Oral bioavailability in Sprague-Dawley rat at 1 mg/kg measured after 24 hrs by LCMS analysis
Format: ADME, organism-based
Settings: in vivo
PROPERTY_LABEL: bioavailability (%)
Report the value in % with no unit label.

Can you share its bioavailability? I mean this compound: Cc1cc(/C=C/C#N)cc(C)c1Nc1ccnc(Nc2ccc(C#N)cc2)n1.Cl [RILPIVIRINE HYDROCHLORIDE]
32

---

Assay: Selectivity index, ratio of CC50 for human MT4 cells to EC50 for antiviral activity against HIV1 3B infected in human MT4 cells incubated for 5 days by MTT assay
Type: toxicity, cell-based
Conditions: MT4 cells (uninfected for CC50; HIV-1 3B infected for EC50)
Exercise: for every item that follows, state its recorded selectivity ratio at 120 h.

What value of measured selectivity ratio at 120 h is listed for Cc1cc(-c2ccc(C#N)cc2F)ccc1Oc1ccnc(Nc2ccc(C#N)cc2)n1 ?
> 27500

Can you share its selectivity ratio at 120 h? I mean this compound: Cc1cc(-c2ccc(Oc3ccnc(Nc4ccc(C#N)cc4)n3)c(F)c2)ccc1C#N
> 6020

Quick one: selectivity ratio at 120 h of N#Cc1ccc(Nc2nccc(Oc3ccc(-c4ccc(C#N)cc4)c(C(F)(F)F)c3)n2)cc1 ?
> 15000

So what's the measured selectivity ratio at 120 h for this one? Cc1cc(-c2ccc(C#N)cc2)c(Cl)cc1Oc1ccnc(Nc2ccc(C#N)cc2)n1
> 63300

Entry N#Cc1ccc(Nc2nccc(Oc3ccc(-c4ccc(C#N)cc4F)cc3F)n2)cc1 : reported selectivity ratio at 120 h = ?
> 98000

Any idea what its selectivity ratio at 120 h is? The compound is Cc1cc(-c2ccc(C#N)c(F)c2)ccc1Oc1ccnc(Nc2ccc(C#N)cc2)n1
> 17400

Query: selectivity ratio at 120 h; subject: N#Cc1ccc(Nc2nccc(Oc3ccc(-c4ccc(C#N)c(Cl)c4)cc3Cl)n2)cc1
232

Item Cc1cc(C#N)ccc1-c1ccc(Oc2ccnc(Nc3ccc(C#N)cc3)n2)c(F)c1 has what recorded selectivity ratio at 120 h?
> 4460

// lookup selectivity ratio at 120 h for COc1cc(-c2ccc(C#N)cc2)ccc1Nc1ccnc(Nc2ccc(C#N)cc2)n1
> 106000

Give the measured selectivity ratio at 120 h of N#Cc1ccc(Nc2nccc(Oc3ccc(-c4ccc(C#N)cc4Cl)cc3Cl)n2)cc1 .
> 55

Requested read-out: selectivity ratio at 120 h. Entry: N#Cc1ccc(Nc2nccc(Oc3ccc(-c4ccc(C#N)cc4)cc3F)n2)cc1
> 172000

Tell me the measured selectivity ratio at 120 h of Cc1cc(Oc2ccnc(Nc3ccc(C#N)cc3)n2)ccc1-c1ccc(C#N)cc1 , please.
41

// lookup selectivity ratio at 120 h for N#Cc1ccc(Nc2nccc(Nc3c(F)cc(-c4ccc(C#N)cc4)cc3F)n2)cc1
> 238000

Given Cc1cc(-c2ccc(C#N)cc2)cc(Cl)c1Oc1ccnc(Nc2ccc(C#N)cc2)n1 , state its recorded selectivity ratio at 120 h.
> 86200

FYI, the data here is from ChEMBL document CHEMBL4354822.
